# System: PPARa:RXRa (NR concentration 270 nM, RXRa partner concentration 90 nM)
# measurement.description: PBM binding z-score (relative to random genomic background probes); higher = stronger binding; sequences stand for … in GC…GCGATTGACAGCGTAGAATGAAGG
y means recorded PBM binding z-score is 3 or above; n means it is below 3.

AGAATGAGGATAAGATCAGGGAAACAGAATACAT: n

Q: Could you verify whether the entry "CCTACTGGGCCATTCAGAGGTCATTGAACATATG" shows PBM binding z-score of no less than 3?
A: y

Q: Exam item: decide whether the reported PBM binding z-score for "TCTTGTAGATCAATAGAGGTTAATAAAGTGCGCT" is at least 3.
A: n

Q: Is PBM binding z-score at least 3? Consider "TCTTGTAGGTCAGCAGGTTAAGAAAGCTGGCCAA"
A: y

Q: Please check the record "CTCGAATGGTCGTGCTCAGGTGAGTATACCAAAC" and state if its PBM binding z-score is at or above 3.
A: n

Q: Threshold query (PBM binding z-score >= 3) on "TCATATAGGTAAAGGTGAAATTCGAACGATATGA"
A: y

Q: Reported PBM binding z-score at or above 3? "CGTCGAAGGTCAGCAGGTCAGTGAAAGCGACGTG"
A: y
